protocolNotes: BSK_3C_Proliferation: Cell Proliferation Assessment in the BioMAP Diversity Plus: 3C Assay (AID 2283006)
cond: primary human endothelial cells (HUVEC)
Active and inactive are the calls of the source. Rule for the calls: active = hit-call score of the fitted dose curve at least 0.9, where 1 is the maximum; inactive = score below 0.9.
// one of true (1) = active, false (0) = inactive, no free text

Record request — test call for `CC1(C)[C@H](C(=O)O[C@H](C#N)c2cccc(Oc3ccccc3)c2)[C@@H]1C=C(Br)Br`
false (0)

Record request — test call for `CC(C)COP(=O)(OCC(C)C)OCC(C)C`
false (0)

Record request — test call for `O=[N+]([O-])O`
false (0)

Record request — test call for `N#CCCCCC#N`
false (0)

Record request — test call for `O=C(CCl)c1ccccc1`
true (1)

Record request — test call for `O=c1[nH]c(Cl)c(Cl)cc1Cl`
false (0)

Record request — test call for `CCCOC(=O)c1ccccc1C(=O)OCCC`
false (0)

Record request — test call for `CC(C)CCCCCCCOC(=O)c1ccccc1C(=O)OCCCCCCCC(C)C`
false (0)

Record request — test call for `C=CCN(CC=C)C(=O)C(Cl)Cl`
false (0)

Record request — test call for `Nc1ccc(-c2ccc(N)c(N)c2)cc1N`
false (0)

Record request — test call for `Clc1ccc(-c2ccccc2)cc1`
false (0)

Record request — test call for CCC(C)c1cc([N+](=O)[O-])cc([N+](=O)[O-])c1OC(=O)C=C(C)C (stereo not given)
true (1)

Record request — test call for `CCCCCCCCCCCC#N`
true (1)

Record request — test call for `CC(C)(C)C(=O)CCl`
true (1)

Record request — test call for `O=[N+]([O-])c1ccc(Cl)cc1`
false (0)

These entries and their values trace back to PubChem BioAssay (EPA / NIEHS).
